Assay: Equilibrium solubility studies (shaker, HPTLC)
Assay type: physicochemical
Conditions: fasted-state simulated intestinal fluid, fassif, thermodynamic from solid; experimental, at 25°C, mean of three; read-out: Solubility in fasted-state simulated intestinal fluid
measurement.type: solubility at 72 h (µg/mL)
// return numeric value only (unit: µg/mL, not printed)

Which solubility at 72 h value belongs to O=c1c2cc(O)c(O)cc2oc2cc(O)c([C@@H]3O[C@H](CO)[C@@H](O)[C@H](O)[C@H]3O)c(O)c12 ?
1480

* * *

Experiment: Determination of log D, aqueous phase pH 7.4
Type: physicochemical
Settings: octanol / physiological buffer (aqueous phase at pH 7.4), experimental
measurement.type: logD
Answer with a number only.

Which logD value belongs to O=c1c2cc(O)c(O)cc2oc2cc(O)c([C@@H]3O[C@H](CO)[C@@H](O)[C@H](O)[C@H]3O)c(O)c12 [mangiferin] ?
-0.79

* * *

Assay: Equilibrium solubility studies (shaker, HPTLC)
Format: physicochemical
Conditions: fasted-state simulated gastric fluid; experimental, at 25°C, mean of three; read-out: Solubility in fasted-state simulated gastric fluid
measurement.type: solubility at 72 h (µg/mL)
// return numeric value only (unit: µg/mL, not printed)

Which solubility at 72 h value belongs to O=c1c2cc(O)c(O)cc2oc2cc(O)c([C@@H]3O[C@H](CO)[C@@H](O)[C@H](O)[C@H]3O)c(O)c12 ?
140
